B1: FAM164C (parent)
chain: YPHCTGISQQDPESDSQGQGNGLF

- Variants of: B1
- test_description: protein stability index of a GFP-peptide fusion (GPS, HEK-293T) (PSI 1-6); higher = more stable;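 note: lentivirally expressed fusions sorted by FACS into six bins by GFP to DsRed ratio, PSI derived from sequencing read proportions per bin multiplied by bin number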
- experimental_context: c terminus: a fixed tail appended
readout_type: protein stability index
The reply should be a number, written without any unit.

YPHCTGIFQQDPESDSQGQGNGLF = 2.69
YPHCTNISQQDPESDSQGQGNGLF = 3.56
YPHCTGISQQDPESDSGGQGNGLF = 3.74

Reported protein stability index for `YPHCTGISQQDPESDSQGQGNGSF` was 4.6

Value of protein stability index reported for the variant `YPHCTGISQQDPESDSQGQGNGLS` is 5.04

Reported protein stability index for `YPHCTYISQQDPESDSQGQGNGLF` was 2.77

These measurements were taken from the supplement of paper PMC10567573.
